# System: Genomic double stranded DNA (salmon)
# experimental_details: Fluorescence intercalator displacement (FID) assay, SYBR-safe probe
# test_conditions: 20 μM compound, 30° C., lower % = stronger binding
Assign Satisfied whenever % Normalised Fluorescence with gDNA does not fall below 40%; assign Not satisfied whenever it does.

Qu. Check this molecule for % Normalised Fluorescence with gDNA at or above 40%: [H]/N=C(\CCNC(=O)c1cc(NC(=O)c2cc(NC(=O)c3ccc(C=Cc4ccc(N(C)C)cc4)nc3)cn2C)cn1C)NCCCCCCCCC [Ia32]
Ans. Satisfied

Qu. Reported % Normalised Fluorescence with gDNA reaches at least 40% for COc1cccc(/C=C/c2ccc(C(=O)Nc3cc(C(=O)Nc4cc(C(=O)NCCC(=N)NC(C)C)n(C)c4)n(C)c3)cc2)c1 [Ia19] ?
Ans. Not satisfied

Qu. For this molecule, is measured % Normalised Fluorescence with gDNA 40% or higher? CCNC(=N)CCNC(=O)c1cc(NC(=O)c2cc(NC(=O)c3ccc(/C=C/c4ccc(OC)cc4)cc3)cn2C)cn1C [Ia20]
Ans. Not satisfied

Qu. Reported % Normalised Fluorescence with gDNA reaches at least 40% for C/N=C(/CCNC(=O)c1cc(NC(=O)c2cc(NC(=O)c3ccc(/C=C/c4ccc5ccccc5c4)cc3)cn2C)cn1C)NC [Ia7] ?
Ans. Not satisfied

Qu. # bool: % Normalised Fluorescence with gDNA of [H]/N=C(\CCNC(=O)c1cc(NC(=O)c2cc(NC(=O)c3ccc(C=Cc4ccc5nonc5c4)cc3)cn2C)cn1C)N1CCCCC1 [Ib2] >= 40%
Ans. Not satisfied

Qu. Check the entry CCCCCCCCCCCCCCCCC[N+](C)(C)CCNC(=O)c1cc(NC(=O)c2cc(NC(=O)c3ccc(/C=C/c4cnc5ccccc5c4)cc3)cn2C)cn1C [Ic16] : does % Normalised Fluorescence with gDNA equal or exceed 40%?
Ans. Satisfied

Qu. Decide: % Normalised Fluorescence with gDNA of Cn1cc(NC(=O)c2cc(NC(=O)c3ccc(/C=C/c4cnc5ccccc5c4)cc3)cn2C)cc1C(=O)NCCCCN1CCCCC1 [IVa11] >= 40%?
Ans. Satisfied
